- experimental system: T1, Human ROR1 (receptor tyrosine kinase-like orphan receptor 1) (human, UniProt Q01973 30-937)
- T1 construct: also called hROR1; K562/ROR1
- T1 sequence (Q01973 30-937): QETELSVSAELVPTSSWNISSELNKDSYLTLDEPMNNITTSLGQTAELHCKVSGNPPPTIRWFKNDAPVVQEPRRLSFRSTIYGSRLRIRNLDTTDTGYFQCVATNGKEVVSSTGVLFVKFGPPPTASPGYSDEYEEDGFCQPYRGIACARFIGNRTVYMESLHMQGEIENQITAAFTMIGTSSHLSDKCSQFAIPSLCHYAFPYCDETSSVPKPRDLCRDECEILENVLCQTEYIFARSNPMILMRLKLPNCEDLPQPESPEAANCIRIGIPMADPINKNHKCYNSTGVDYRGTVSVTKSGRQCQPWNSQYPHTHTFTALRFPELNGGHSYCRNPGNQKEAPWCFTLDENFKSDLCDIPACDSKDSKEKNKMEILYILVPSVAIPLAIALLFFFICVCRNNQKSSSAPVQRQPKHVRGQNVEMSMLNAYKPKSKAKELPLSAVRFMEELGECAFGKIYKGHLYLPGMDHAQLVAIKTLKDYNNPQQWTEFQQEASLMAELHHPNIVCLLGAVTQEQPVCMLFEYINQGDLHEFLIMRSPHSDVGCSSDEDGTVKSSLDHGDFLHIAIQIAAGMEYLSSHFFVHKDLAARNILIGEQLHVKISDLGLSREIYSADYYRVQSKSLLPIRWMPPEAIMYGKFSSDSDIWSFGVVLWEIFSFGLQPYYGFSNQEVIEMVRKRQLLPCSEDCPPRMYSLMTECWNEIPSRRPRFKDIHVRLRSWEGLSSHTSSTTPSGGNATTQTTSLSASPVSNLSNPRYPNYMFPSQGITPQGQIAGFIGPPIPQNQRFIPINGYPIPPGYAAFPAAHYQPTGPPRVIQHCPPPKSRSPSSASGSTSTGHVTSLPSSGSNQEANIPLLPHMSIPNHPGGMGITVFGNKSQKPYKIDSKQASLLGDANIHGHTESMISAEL
- experiment notes: competition with R12 scFv on ROR1-expressing cells; predicted plateau relative to R12 scFv = 100%
property label: % Max Competition (%)
Kindly provide the numeric value in % only, without the unit symbol.

Field: example entries. Status: answers known.
{"binder": "Clone 305 scFv (scFv) scFv: EVQLVESGGGLVQPGRSLRLSCTASGFTFGDYAMSWVRQAPGKGLEWVSSISGSGRSTDHADYVKGRFTISRDNSKNTVYLQMNRLRAEDTAVYYCAKVSNYEYYFDYWAQGTLVTVSSQSVLTQPPSVSVAPGQTARITCGGNNIGSTSVHWFQQKPGQAPVLVVYDDSDRPSGIPERFSGSNSGNTATLTISRVEAGDEADYYCQVWDNDSDHRVFGGGTKLTVL", "property label": "% Max Competition", "unit": "%", "recorded result": 97}
{"binder": "Clone 83B scFv (scFv, De-glycosylation variant of clone 83 (S to N at VH position 53, Kabat)) scFv: QVQLVQSGAEVKKPGASVKVSCKASGYTFTSYYMHWVRQAPGQGLEWMGIINPNGGSTSYAQKFQGRVTMTRDTSTSTVYMELSSLRSEDTAVYYCARDSSYDAFDIWGQGTMVTVSSGGGGSGGGGSGGGGSAIQLTQSPSTLSASVGDRVTITCQASQDISNYLNWYQQKPGKAPKLLINDASYLETGVPSRFSGSGSGTDFTLTISSLQPEDIATYYCQQYESLPYTFGQGTKLEIK", "property label": "% Max Competition", "unit": "%", "recorded result": 103}

For the next question, use this binder.
// Clone 350 scFv (scFv) scFv: EVQLVESGGGLVQPGRSLRLSCTASGFTFGDYAMSWVRQAPGKGLEWVSSISGSGRSTDHADYVKGRFTISRDNSKNTVYLQMNRLRAEDTAVYYCAKVSNYEYYFDYWAQGTLVTVSSQPVLTQPHSVSESPGKTVTISCTRSSGSIASNYVQWYQQRPGSAPTTVIYEDNQRPSGVPDRFSGSIDSSSNSASLTISGLKTEDEADYYCQSYDSSNHVFGTGTKLTVL : % Max Competition value = 80
